System: LOX IMVI
Test: NCI tumour cell line growth inhibition, 48 h
Activity calls are given as the source filed them. Cut-off read from the data, not from the text of the source: active = GI50 up to about 1.1 µM and inactive = higher.
Possible outcomes: True = active, False = inactive

# molecule, group
rows = [
    ("CCC(C)CC(C)CC(C)/C=C(\\C)C1=C(C)CC(C)(O)O1 (stereo not given)", "False"),
    ("Nc1ccccc1NC(=O)c1ccc(CNC(=O)OCc2cccnc2)cc1", "True"),
    ("O=c1c2ccccc2nc(-c2cc3c(cc2Cl)Sc2nccn2S3(=O)=O)n1-c1ccccc1", "False"),
    ("Cc1ccc(S(=O)(=O)N2CCCN(S(=O)(=O)c3ccc(C)cc3)CC2)cc1", "True"),
    ("CCOc1ccc(NC(=O)C(=O)CC(=O)c2c[n+]([O-])c3cc(C)c(C)cc3[n+]2[O-])cc1", "False"),
]

###

Tested on: UO-31
Assay: NCI tumour cell line growth inhibition, 48 h
Calls of active or inactive are those of the source. Rule as the data show it: active = GI50 up to about 1.1 µM and inactive = higher.
Outcomes: Y (active), N (inactive)

# compound, group
records = [
    ("OCc1cc2c([nH]c3ccccc32)c(C(O)CO)n1 (stereo not drawn)", "N"),
    ("COc1cc(C)cc(C(=O)OCc2ccccc2)c1C1=C(Cl)C(=O)C(Cl)=CC1=O", "N"),
    ("COc1cc(/C=C2/C(=O)N(C(=O)c3ccc(Cl)cc3)N=C2C)cc(OC)c1OC", "N"),
    ("CCCCC[C@H]1CCCCCCCCCC(=O)OC2C(O[C@@H]3OC(C)[C@H](OC(=O)[C@@H](C)CC)C(O[C@@H]4OC(C)[C@H](O)C(O)[C@@H]4O)[C@@H]3OC(=O)[C@H](C)CC)[C@H](OC3C(O)[C@@H](O)C(C)O[C@H]3O1)OC(CO)[C@H]2O (stereo partly drawn)", "N"),
    ("CC1=CC2=C(C)C3(CC3)[C@@](C)(O)C(=O)C2=C1", "Y"),
    ("C/C=C/[P+](c1ccccc1)(c1ccccc1)c1ccccc1", "N"),
    ("O=C1OC[C@@H]2Cc3c([nH]c4ccccc34)[C@@H](c3cc(O)c(O)c(O)c3)N12", "N"),
    ("CC(C)c1ccc2nc3ccc(C(=O)NCCN4CCN(c5ccccc5)CC4)cn3c(=O)c2c1", "N"),
]

###

Test system: A549
Assay: NCI tumour cell line growth inhibition, 48 h
Active and inactive are the calls of the source. No stated cut-off is given here; in the data, active = GI50 up to about 1.1 µM and inactive = higher. Where a SMILES comes first, the peptide text is derived from it. [ ]: non-standard residue; d: D form. The star is where a group is joined. Chg = N[CH](C(=O)O)C1CCCCC1; Cbz = O=C(OCc1ccccc1)*; OBn = c1ccc(CO*)cc1
Attribute: GI50

# compound, GI50
measured = [
    ("Cc1ccc(CN2CCN(Cc3ccc(C)o3)C(C)C2)o1 (stereo not given)", "> 100 µM (inactive)"),
    ("COC(=O)C(NC(=O)C(CC(=O)OCc1ccccc1)NC(=O)OCc1ccccc1)C1CCCCC1 (stereo not given) (Cbz-Asp(OBn)-[Chg]-OMe; configuration not given here)", "> 100 µM (inactive)"),
    ("CCOC(=O)c1cc2c3ccn(Cc4ccccc4)c3c3c(C)noc3c2[nH]1", "> 100 µM (inactive)"),
    ("O=C1C=CN(C2OC(CO)C(O)C2O)C(=O)C1 (stereo not given)", "17.8 µM (inactive)"),
    ("CCC(C(=O)c1ccc(OC)c(OC)c1)N(C(=O)C(F)(F)F)C(C)c1ccccc1 (stereo not given)", "> 100 µM (inactive)"),
]

###

Test system: KM-20L2
Test: NCI tumour cell line growth inhibition, 48 h
Activity calls are given as the source filed them. Cut-off read from the data, not from the text of the source: active = GI50 up to about 1.1 µM and inactive = higher.
Classes used: active, inactive

# molecule, group
data = [
    ("COCC(C)(C)/N=C/N1Cc2cc3ccccc3nc2C1", "inactive"),
    ("CC12C(=O)N(CCN)C(=O)C1C1c3ccccc3C2c2ccccc21 (stereo not drawn)", "inactive"),
    ("COc1ccc(C2COc3c(ccc(O)c3C)C2)cc1OC (stereo not drawn)", "inactive"),
    ("O=C(NO)C(=O)Nc1ccc(Cl)cc1[N+](=O)[O-]", "inactive"),
    ("COC(=O)CCC(NC(=S)N/N=C(\\C)c1cccs1)C(=O)OC (stereo not drawn)", "inactive"),
    ("CCc1cccc(C)c1NC(=O)CC1C(=O)Nc2ccccc2S1(=O)=O (stereo not drawn)", "inactive"),
    ("COc1cc2ccc(C(=O)O)cc2cc1OC", "inactive"),
    ("CC(=O)OC(C)(C)/C=C/C(=O)[C@](C)(O)[C@H]1[C@H](O)C[C@@]2(C)[C@@H]3CC=C4[C@@H](C=C(O)C(=O)C4(C)C)[C@]3(C)C(=O)C[C@]12C", "active"),
]

###

Test system: A549
Experiment: NCI tumour cell line growth inhibition, 48 h
Active and inactive are the calls of the source. Rule as the data show it: active = GI50 up to about 1.1 µM and inactive = higher.
Outcome codes: active, inactive

# molecule, system-tested, group
measured = [
    ("CC[P+](C)(Cc1ccccc1)c1ccccc1 (stereo not given)", "A549", "inactive"),
    ("COc1cc([N+](=O)[O-])ccc1NC1=CC(=O)CCC1", "A549", "inactive"),
    ("CC(=O)NC(Cc1ccc(OP(=O)(OCc2ccc([N+](=O)[O-])o2)N(C)CCCCCl)cc1)C(=O)NC(C)c1ccc(OCC2CCCCC2)c(C(N)=O)c1 (stereo not given)", "A549", "inactive"),
    ("CC(C)(C)Sc1nnc(SC(C)(C)C)c2c(SC(C)(C)C)nnc(O)c12", "A549", "inactive"),
    ("COc1cc([C@@H]2c3cc4c(cc3[C@@H](NCc3cccc(C#N)c3)C3COC(=O)[C@@H]32)OCO4)cc(OC)c1O (stereo not given in full)", "A549", "active"),
    ("Cc1c(-c2ccccc2)[nH]n(C2=NCCN2)c1=O", "A549", "inactive"),
    ("CC(C)c1cccc(C(C)C)c1NC(=O)CCC(=O)NN", "A549", "inactive"),
    ("Cn1cc(S(=O)(=O)NC(=O)Nc2ccc(Cl)cc2)c2ccccc21", "A549", "inactive"),
    ("COC(=O)[C@H]1C[C@H]1NC(=O)C(CC(=O)OCc1ccccc1)NC(=O)OCc1ccccc1 (stereo not given in full)", "A549", "inactive"),
    ("O=c1c2ccccc2nc(-c2ccccc2)n1NC(=S)Nc1ccccc1", "A549", "inactive"),
]

###

System: SK-MEL-28
Test: NCI tumour cell line growth inhibition, 48 h
Active and inactive are the calls of the source. Cut-off read from the data, not from the text of the source: active = GI50 up to about 1.1 µM and inactive = higher. Where a SMILES comes first, the peptide text is derived from it. [ ]: non-standard residue; d: D form. The star is where a group is joined. Chg = N[CH](C(=O)O)C1CCCCC1; Cbz = O=C(OCc1ccccc1)*; OBn = c1ccc(CO*)cc1
Property: GI50; scope: individual compounds

# compound, GI50
data = [
    ("CC(=O)N1CC2Nc3ccccc3C2CC1CO (centres undefined)", "> 100 µM (inactive)"),
    ("O=C(O)c1ccc(Nc2nc3nn(Cc4ccccc4)cc3c(=O)s2)cc1", "> 100 µM (inactive)"),
    ("Cn1c2ccccc2n2c(=O)c3c(c(C#N)c12)CCCC3", "> 100 µM (inactive)"),
    ("O=C(OCc1ccccc1)c1ccccc1-c1c2ccc(=O)cc-2oc2cc(OCc3ccccc3)ccc12", "21.4 µM (inactive)"),
    ("C=C1C(=O)O[C@H]2C1C[C@H](O)[C@@]1(C)OC1CC[C@@]1(C)O[C@H]21 (some centres undefined)", "19.4 µM (inactive)"),
    ("[N-]=[N+]=C1C(=O)C2CC3CC(C2)CC1C3", "> 100 µM (inactive)"),
    ("Nn1c(=S)[nH]nc(/C=C/c2c(O)ccc3ccccc23)c1=O", "8.95 µM (inactive)"),
    ("COC(=O)C(NC(=O)C(CC(=O)OCc1ccccc1)NC(=O)OCc1ccccc1)C1CCCCC1 (centres undefined) (Cbz-Asp(OBn)-[Chg]-OMe; configuration not given here)", "> 100 µM (inactive)"),
    ("Cc1ccc(C2OC(COCc3ccc(Cl)cc3)C(OCc3ccc(Cl)cc3)C2O)cc1 (centres undefined)", "31.1 µM (inactive)"),
    ("CC(C)(C)N/N=C(/Cc1nc2c3c(ccc2nc1O)C(=O)c1ccccc1C3=O)C(=O)NC1=C(Cl)C(=O)c2ccccc2C1=O", "> 100 µM (inactive)"),
    ("CC(C)/C(Cl)=N\\OC(=O)Nc1cccc(Cl)c1", "16.9 µM (inactive)"),
    ("COC(=O)[C@@H]1C[C@]2(Br)c3ccccc3N(S(=O)(=O)c3ccccc3)[C@@H]2N1C(=O)OC", "> 100 µM (inactive)"),
    ("COc1ccc(C(=O)/C=C/c2ccc(OCCSCCCCCCCCCCSCCOc3ccc(/C=C/C(=O)c4ccc(OC)c(OC)c4)cc3)cc2)cc1OC", "> 100 µM (inactive)"),
    ("O=[N+]([O-])c1cc(F)ccc1S(=O)(=O)c1ccccc1", "> 10 µM (inactive)"),
    ("O=C(Nc1ccc(Cl)cc1)c1cc(S(=O)(=O)Nc2n[nH]c(=O)[nH]2)c(SSc2cc(Cl)c(C(=O)Nc3ccc(Cl)cc3)cc2S(=O)(=O)Nc2n[nH]c(=O)[nH]2)cc1Cl", "> 100 µM (inactive)"),
    ("CC(C)c1cccc(C(C)C)c1NC(=O)CCC(=O)NN", "> 100 µM (inactive)"),
    ("C/C(=C\\c1ccccc1)C(=O)c1c(C)cc(C)cc1C", "> 100 µM (inactive)"),
    ("CN(C)CCCCN1CCc2c(n(C)c3ccccc23)C1=O", "20.3 µM (inactive)"),
    ("O=C(NCCCCNCCCNC(=O)C(F)(F)F)C(F)(F)F", "> 100 µM (inactive)"),
]
